- System: PC-3
- procedureDetails: Cytotoxic activity against human PC3 cells assessed as reduction in cell viability after 72 hrs by SRB assay
- Type: functional, cell-based
- setupConditions: PC-3, 72 h
experimentalEndpoint: pIC50
The read-out pIC50 is expressed as -log10 of concentration in moles per litre.

COC(=O)[C@]1(C)CCC[C@]2(C)c3ccc(C(C)C)c(N)c3CC[C@@H]12 | 4.68
C=CCc1cc(C(C)C)c(O)c2c1[C@@]1(C)CCC3=C(COC3=O)[C@@H]1CC2=O | 4.02
COC(=O)[C@]1(C)CCC[C@]2(C)c3ccc(C(C)C)cc3CC[C@@H]12 [METHYL DEHYDROABIETATE] | 4.42
CC(C)c1ccc2c(c1)CC[C@H]1[C@](C)(C(=O)O)CCC[C@]21C [DEHYDROABIETIC ACID] | 4.29
C=C1C(=O)CC[C@]2(C)c3ccc(C(C)C)c(OC)c3CC[C@@H]12 | 5.14
COc1c(C(C)C)ccc2c1CC[C@H]1c3cocc3CC[C@]21C | 4.71

Prompt line: Look up and report measured pIC50 for this entry: COC(=O)[C@]1(C)CCC[C@]2(C)c3ccc(C(C)C)c(OC)c3[C@@H](O)C[C@@H]12
Response line: 4.19

Prompt line: Look up and report measured pIC50 for this entry: COc1c(C(C)C)ccc2c1CC[C@H]1[C@@H](O)CCC[C@]21C
Response line: 4.01

Prompt line: Look up and report measured pIC50 for this entry: COC(=O)[C@]1(C)CCC[C@]2(C)c3ccc(C(C)C)c(OC)c3C(=O)C[C@@H]12
Response line: 4.00

Prompt line: Look up and report measured pIC50 for this entry: CCOCO[C@]12CCC[C@]3(CO1)c1ccc(C(C)C)c(OC)c1C(=O)C[C@@H]23
Response line: 5.59

Prompt line: Look up and report measured pIC50 for this entry: C=C1C(=C(SC)SC)CC[C@]2(CO)c3ccc(C(C)C)c(OC)c3CC[C@@H]12
Response line: 4.30

---

Measured pIC50 by item
- Test system: SK-OV-3
- procedureDetails: Cytotoxic activity against human SKOV3 cells assessed as reduction in cell viability after 72 hrs by SRB assay
- Format: functional, cell-based
- setupConditions: SK-OV-3, 72 h
The read-out pIC50 is expressed as -log10 of concentration in moles per litre.

Known results for molecules:
C=CCOc1c(C(C)C)ccc2c1C(=O)C[C@H]1C3=C(CC[C@]21C)C(=O)OC3 | 4.08
COC(=O)[C@]1(C)CCC[C@]2(C)c3ccc(C(C)C)c(OC)c3[C@H](O)C[C@@H]12 | 4.14
COc1c(C(C)C)ccc2c1CC[C@H]1C3=C(CC[C@]21C)C(=O)OC3 | 4.30
C=C1C(=O)CC[C@]2(C)c3ccc(C(C)C)c(OC)c3CC[C@@H]12 | 5.13

Now examine the next entry.
Prompt line: Look up and report measured pIC50 for this entry: C=C1[C@H](O[Si](C)(C)C(C)(C)C)CC[C@]2(C)c3ccccc3CC[C@@H]12
Response line: 4.04

---

- Test system: SK-OV-3
- procedureDetails: Cytotoxic activity against human SKOV3 cells assessed as reduction in cell viability after 72 hrs by SRB assay
- Assay type: functional, cell-based
- setupConditions: SK-OV-3, 72 h
Measured IC50 by item

Prompt line: Look up and report measured IC50 for this entry: COc1cccc2c1CC[C@H]1C3=C(CC[C@]21C)C(=O)OC3
Response line: > 100 µM

Prompt line: Look up and report measured IC50 for this entry: COc1cccc2c1CC[C@H]1[C@@H](CO)[C@H](O[Si](C)(C)C(C)(C)C)CC[C@]21C
Response line: > 100 µM

Prompt line: Look up and report measured IC50 for this entry: CC(C)(C)[Si](C)(C)O[C@@H]1CC[C@]2(C)c3ccccc3CC[C@H]2[C@H]1CO
Response line: > 100 µM

Sourced from ChEMBL document CHEMBL4000202
